experimental_target: human MASP-2 (human, UniProt O00187 16-686)
Sequence (O00187 16-686): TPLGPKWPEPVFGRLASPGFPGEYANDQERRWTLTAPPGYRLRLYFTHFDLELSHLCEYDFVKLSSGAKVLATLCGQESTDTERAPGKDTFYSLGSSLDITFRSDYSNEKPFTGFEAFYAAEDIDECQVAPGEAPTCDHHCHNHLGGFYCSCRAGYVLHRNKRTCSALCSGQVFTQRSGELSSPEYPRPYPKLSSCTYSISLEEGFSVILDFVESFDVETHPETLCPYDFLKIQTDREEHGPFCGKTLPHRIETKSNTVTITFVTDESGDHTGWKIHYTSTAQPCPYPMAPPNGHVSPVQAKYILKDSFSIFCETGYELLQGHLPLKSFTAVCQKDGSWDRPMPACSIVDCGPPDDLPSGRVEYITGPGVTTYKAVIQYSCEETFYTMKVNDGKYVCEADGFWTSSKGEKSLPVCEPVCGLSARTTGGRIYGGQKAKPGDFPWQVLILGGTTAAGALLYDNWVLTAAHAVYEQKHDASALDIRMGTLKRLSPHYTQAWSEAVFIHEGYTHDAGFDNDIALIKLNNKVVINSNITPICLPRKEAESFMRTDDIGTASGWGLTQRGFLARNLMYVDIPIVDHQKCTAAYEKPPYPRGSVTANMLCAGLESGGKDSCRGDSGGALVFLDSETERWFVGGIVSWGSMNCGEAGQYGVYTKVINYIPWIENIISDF
test_description: cell-based or functional assay
measurement_name: Functional IC50, C3b deposition, human serum Exp #3

scFv mother clone 17L20 (scFv) scFv: EVQLQQSGPGLVKPSQTLSLTCAISGDSVSSKRAAWDWIRQSPSRGLEWLGRTYYRSKWFNDYAISVKSRITINADTSRNQFSLQLNSVTPEDTAVYYCVKSNSGTGAFDSWGQGTLVTVSSKLSGSASAPKLEEGEFSEARVQPGLTQPPSVSVSPGQTARITCSRDKLGDKYVSWYQQKPGQSPVVVMYKDNKRPSGIPERFSGSNSGNTATLTISGTQAMDEADYYCQAWDSSTAGVFGGGTKLTVLAAAGSEQKLISEEDLNSHHHHHH = 0.308 µM

Here's the next entry for you.
Consider scFv mother clone 9P13 (scFv) scFv: QVQLQQSGPGLVKPSQTLSLTCAISGDSVSSNSAAWNWIRQSPSRGLEWLGRTYYRSKWYNDYAVSVKSRITINPDTSKNQFSLQLNSVTPEDTAVYYCARDPFGVPFDIWGQGTMVTVSSKLSGSASAPKLEEGEFSEARVSYELTQLPSVSVAPGQTARVTCGGNNIRSKNVHWYQQKPGQAPVLVVYDDTDRPSGIPERFSGSNSGNTATLTVSRVEAGDEADYYCQVWDTTTDHVVFGGGTKVTVLAAAGSEQKLISEEDLNSHHHHHH . Its measured Functional IC50, C3b deposition, human serum Exp #3 is 0.0173 µM

Where these numbers come from: patent US20170088632A1
